- System: 242566-281-R-J2-PDC complex spheroid viability
- Assay procedure: Anticancer human tumor 242566-281-R-J2-PDC patient-derived pancreatic carcinoma cell line growth inhibition [RAS]
- Applied conditions: curve of first compound; second compound 0.0316 µM
Outcome measure: IC50 (nM)

>>> value_reported("Cc1nc(N2CCC3(CC2)COC(C)C3N)c(CO)nc1Sc1ccnc(N)c1Cl (centres undefined) + C#Cc1c(F)ccc2cc(O)cc(-c3ncc4c(N5CC6CCC(C5)N6)nc(OCC56CCCN5CC(F)C6)nc4c3F)c12")
608
>>> value_reported("CC(C)n1nc(-c2ccc3oc(N)nc3c2)c2c(N)ncnc21 + C#Cc1c(F)ccc2cc(O)cc(-c3ncc4c(N5CC6CCC(C5)N6)nc(OCC56CCCN5CC(F)C6)nc4c3F)c12")
67.5
>>> value_reported("O=C(c1ccc(F)c(F)c1Nc1ccc(I)cc1F)N1CC(O)([C@@H]2CCCCN2)C1 + C#Cc1c(F)ccc2cc(O)cc(-c3ncc4c(N5CC6CCC(C5)N6)nc(OCC56CCCN5CC(F)C6)nc4c3F)c12")
83.3
>>> value_reported("CC(Nc1ccc2c(c1)OCCn1cc(N3C(=O)OCC3C(F)F)nc1-2)C(N)=O (centres undefined) + C#Cc1c(F)ccc2cc(O)cc(-c3ncc4c(N5CC6CCC(C5)N6)nc(OCC56CCCN5CC(F)C6)nc4c3F)c12")
437
>>> value_reported("Nc1ccn(C2OC(CO)C(O)C2(F)F)c(=O)n1 (centres undefined) + C#Cc1c(F)ccc2cc(O)cc(-c3ncc4c(N5CC6CCC(C5)N6)nc(OCC56CCCN5CC(F)C6)nc4c3F)c12")
86

P = Nc1ccn(C2OC(CO)C(O)C2(F)F)c(=O)n1 (centres undefined) + C=CC(=O)N1CCN(c2nc(OCC3CCCN3C)nc3c(F)c(-c4nc(N)cc(C)c4C(F)(F)F)c(Cl)cc23)C(C)C1
Q = O=C(c1ccc(F)c(F)c1Nc1ccc(I)cc1F)N1CC(O)([C@@H]2CCCCN2)C1 + C=CC(=O)N1CCN(c2nc(OCC3CCCN3C)nc3c(F)c(-c4nc(N)cc(C)c4C(F)(F)F)c(Cl)cc23)C(C)C1
R = CCc1c2c(nc3ccc(O)cc13)-c1cc3c(c(=O)n1C2)COC(=O)[C@]3(O)CC + C#Cc1c(F)ccc2cc(O)cc(-c3ncc4c(N5CC6CCC(C5)N6)nc(OCC56CCCN5CC(F)C6)nc4c3F)c12
S = CC(C)NCC(C(=O)N1CCN(c2ncnc3c2C(C)CC3O)CC1)c1ccc(Cl)cc1 (centres undefined) + C#Cc1c(F)ccc2cc(O)cc(-c3ncc4c(N5CC6CCC(C5)N6)nc(OCC56CCCN5CC(F)C6)nc4c3F)c12
Ask: Ascending sort, IC50. Please list the labels according to the requested order.
Result: R, P, Q, S
(R: 31.6 nM, P: 103 nM, Q: 436 nM, S: 7270 nM)

---

- System: 242566-281-R-J2-PDC complex spheroid viability
- Assay procedure: Anticancer human tumor 242566-281-R-J2-PDC cell line growth inhibition [RAS];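 note: spheroids exposed to compound for 7 days before readout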;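 for viability, T/C: 100% = DMSO vehicle control wells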
- Applied conditions: second compound 1 µM; first compound 0.0316 µM; stronger effect = lower value
Outcome measure: viability, T/C (%)
Write the number in % without appending the unit.

>>> value_reported("CC(=O)OC12COC1CC(O)C1(C)C(=O)C(O)C3=C(C)C(OC(=O)C(O)C(NC(=O)OC(C)(C)C)c4ccccc4)CC(O)(C(OC(=O)c4ccccc4)C21)C3(C)C (configuration not stated) + C=CC(=O)N1CCN(c2nc(OCC3CCCN3C)nc3c(F)c(-c4nc(N)cc(C)c4C(F)(F)F)c(Cl)cc23)C(C)C1")
52.7

// next entry
Ask: Which viability, T/C value is on record for CCN1CCN(Cc2ccc(Nc3ncc(F)c(-c4cc(F)c5nc(C)n(C(C)C)c5c4)n3)nc2)CC1 + C#Cc1c(F)ccc2cc(O)cc(-c3ncc4c(N5CC6CCC(C5)N6)nc(OCC56CCCN5CC(F)C6)nc4c3F)c12 ?
Result: 50.5

---

- Test system: 242566-281-R-J2-PDC complex spheroid viability
- Assay procedure: Anticancer human tumor 242566-281-R-J2-PDC cell line growth inhibition [RAS];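 note: spheroids exposed to compound for 7 days before readout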;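 for viability, T/C: 100% = DMSO vehicle control wells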
- Applied conditions: second compound 0.1 µM; first compound 3.16 µM; stronger effect = lower value
Outcome measure: viability, T/C (%)
Write the number in % without appending the unit.

>>> value_reported("NC1c2ccccc2OC12CCN(c1cnc3c(N4CCCc5ncccc54)n[nH]c3n1)CC2 (centres undefined) + C#Cc1c(F)ccc2cc(O)cc(-c3ncc4c(N5CC6CCC(C5)N6)nc(OCC56CCCN5CC(F)C6)nc4c3F)c12")
34.1

Ask: Which viability, T/C value is on record for CC(Nc1ccc2c(c1)OCCn1cc(N3C(=O)OCC3C(F)F)nc1-2)C(N)=O (centres undefined) + C=CC(=O)N1CCN(c2nc(OCC3CCCN3C)nc3c(F)c(-c4nc(N)cc(C)c4C(F)(F)F)c(Cl)cc23)C(C)C1 ?
Result: 37.2

Ask: Which viability, T/C value is on record for C[C@@H](NC(=O)c1ncnc(N)c1Cl)c1ncc(C(=O)Nc2cc(C(F)(F)F)c(Cl)cn2)s1 + C=CC(=O)N1CCN(c2nc(OCC3CCCN3C)nc3c(F)c(-c4nc(N)cc(C)c4C(F)(F)F)c(Cl)cc23)C(C)C1 ?
Result: 106

Ask: Which viability, T/C value is on record for Cc1nc(N2CCC3(CC2)COC(C)C3N)c(CO)nc1Sc1ccnc(N)c1Cl (centres undefined) + C#Cc1c(F)ccc2cc(O)cc(-c3ncc4c(N5CC6CCC(C5)N6)nc(OCC56CCCN5CC(F)C6)nc4c3F)c12 ?
Result: 34.5

---

Entries and their viability, T/C
- Test system: 242566-281-R-J2-PDC complex spheroid viability
- Assay procedure: Anticancer human tumor 242566-281-R-J2-PDC cell line growth inhibition [RAS];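 note: spheroids exposed to compound for 7 days before readout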;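 for viability, T/C: 100% = DMSO vehicle control wells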
- Applied conditions: second compound 3.16 µM; first compound 3.16 µM; stronger effect = lower value
Write the number in % without appending the unit.

Worked examples, 4 molecules total:
>>> value_reported("CCC(CC)c1cc(NC2CCC(N)C2)n2nccc2n1 (stereo not given) + C#Cc1c(F)ccc2cc(O)cc(-c3ncc4c(N5CC6CCC(C5)N6)nc(OCC56CCCN5CC(F)C6)nc4c3F)c12")
11.1
>>> value_reported("Cc1nc(N2CCC3(CC2)COC(C)C3N)c(CO)nc1Sc1ccnc(N)c1Cl (stereo not given) + C#Cc1c(F)ccc2cc(O)cc(-c3ncc4c(N5CC6CCC(C5)N6)nc(OCC56CCCN5CC(F)C6)nc4c3F)c12")
42.8
>>> value_reported("CC(Nc1ccc2c(c1)OCCn1cc(N3C(=O)OCC3C(F)F)nc1-2)C(N)=O (stereo not given) + C#Cc1c(F)ccc2cc(O)cc(-c3ncc4c(N5CC6CCC(C5)N6)nc(OCC56CCCN5CC(F)C6)nc4c3F)c12")
5.47
>>> value_reported("CC(C)NCC(C(=O)N1CCN(c2ncnc3c2C(C)CC3O)CC1)c1ccc(Cl)cc1 (stereo not given) + C#Cc1c(F)ccc2cc(O)cc(-c3ncc4c(N5CC6CCC(C5)N6)nc(OCC56CCCN5CC(F)C6)nc4c3F)c12")
24.8

Ask: Which viability, T/C value is on record for CC1(O)CCCC1n1c(=O)c(C(F)F)cc2cnc(NC3CCN(S(C)(=O)=O)CC3)nc21 (stereo not given) + C#Cc1c(F)ccc2cc(O)cc(-c3ncc4c(N5CC6CCC(C5)N6)nc(OCC56CCCN5CC(F)C6)nc4c3F)c12 ?
Result: 69

---

- System: 242566-281-R-J2-PDC complex spheroid viability
- Assay procedure: Anticancer human tumor 242566-281-R-J2-PDC cell line growth inhibition [RAS];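 note: spheroids exposed to compound for 7 days before readout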;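 for viability, T/C: 100% = DMSO vehicle control wells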
- Applied conditions: second compound 0.0949 µM; first compound 1 µM; stronger effect = lower value
Entries and their viability, T/C
Write the number in % without appending the unit.

Worked examples, 10 compounds total:
>>> value_reported("Nc1ccn(C2OC(CO)C(O)C2(F)F)c(=O)n1 (configuration not stated) + CCn1c(-c2cc(N3CCN(C)CC3)cnc2C(C)OC)c2c3cc(ccc31)-c1csc(n1)CC(NC(=O)C1CC1C)C(=O)N1CCCC(N1)C(=O)OCC(C)(C)C2")
13.9
>>> value_reported("C=CC(=O)N1CCN(c2nc(OCC3CCCN3C)nc3c(F)c(-c4nc(N)cc(C)c4C(F)(F)F)c(Cl)cc23)C(C)C1 (configuration not stated) + CCn1c(-c2cccnc2C(C)OC)c2c3cc(ccc31)N1CCOC(CC(NC(=O)C(C(C)C)N(C)C(=O)C3(F)CCN(C(=O)C#CC(C)(C)N(C)C)CC3)C(=O)N3CCCC(N3)C(=O)OCC(C)(C)C2)C1")
90.5
>>> value_reported("Nc1ccn(C2OC(CO)C(O)C2(F)F)c(=O)n1 (configuration not stated) + CCn1c(-c2cccnc2C(C)OC)c2c3cc(ccc31)N1CCOC(CC(NC(=O)C(C(C)C)N(C)C(=O)C3(F)CCN(C(=O)C#CC(C)(C)N(C)C)CC3)C(=O)N3CCCC(N3)C(=O)OCC(C)(C)C2)C1")
13.4
>>> value_reported("CCC(CC)c1cc(NC2CCC(N)C2)n2nccc2n1 (configuration not stated) + CCn1c(-c2cc(N3CCN(C)CC3)cnc2C(C)OC)c2c3cc(ccc31)-c1csc(n1)CC(NC(=O)C1CC1C)C(=O)N1CCCC(N1)C(=O)OCC(C)(C)C2")
24.5
>>> value_reported("CC(Nc1ccc2c(c1)OCCn1cc(N3C(=O)OCC3C(F)F)nc1-2)C(N)=O (configuration not stated) + CCn1c(-c2cccnc2C(C)OC)c2c3cc(ccc31)N1CCOC(CC(NC(=O)C(C(C)C)N(C)C(=O)C3(F)CCN(C(=O)C#CC(C)(C)N(C)C)CC3)C(=O)N3CCCC(N3)C(=O)OCC(C)(C)C2)C1")
48.6
>>> value_reported("Cc1nc(N2CCC3(CC2)COC(C)C3N)c(CO)nc1Sc1ccnc(N)c1Cl (configuration not stated) + CCn1c(-c2cc(N3CCN(C)CC3)cnc2C(C)OC)c2c3cc(ccc31)-c1csc(n1)CC(NC(=O)C1CC1C)C(=O)N1CCCC(N1)C(=O)OCC(C)(C)C2")
16.9
>>> value_reported("C=CC(=O)Nc1cc(Nc2nccc(-c3cn(C)c4ccccc34)n2)c(OC)cc1N(C)CCN(C)C + CCn1c(-c2cc(N3CCN(C)CC3)cnc2C(C)OC)c2c3cc(ccc31)-c1csc(n1)CC(NC(=O)C1CC1C)C(=O)N1CCCC(N1)C(=O)OCC(C)(C)C2")
15.9
>>> value_reported("NC1c2ccccc2OC12CCN(c1cnc3c(N4CCCc5ncccc54)n[nH]c3n1)CC2 (configuration not stated) + CCn1c(-c2cccnc2C(C)OC)c2c3cc(ccc31)N1CCOC(CC(NC(=O)C(C(C)C)N(C)C(=O)C3(F)CCN(C(=O)C#CC(C)(C)N(C)C)CC3)C(=O)N3CCCC(N3)C(=O)OCC(C)(C)C2)C1")
55
>>> value_reported("C[C@@H](NC(=O)c1ncnc(N)c1Cl)c1ncc(C(=O)Nc2cc(C(F)(F)F)c(Cl)cn2)s1 + CCn1c(-c2cc(N3CCN(C)CC3)cnc2C(C)OC)c2c3cc(ccc31)-c1csc(n1)CC(NC(=O)C1CC1C)C(=O)N1CCCC(N1)C(=O)OCC(C)(C)C2")
27.2
>>> value_reported("NC1c2ccccc2OC12CCN(c1cnc3c(N4CCCc5ncccc54)n[nH]c3n1)CC2 (configuration not stated) + CCn1c(-c2cc(N3CCN(C)CC3)cnc2C(C)OC)c2c3cc(ccc31)-c1csc(n1)CC(NC(=O)C1CC1C)C(=O)N1CCCC(N1)C(=O)OCC(C)(C)C2")
13.6

// next entry
Ask: Which viability, T/C value is on record for C[C@@H](NC(=O)c1ncnc(N)c1Cl)c1ncc(C(=O)Nc2cc(C(F)(F)F)c(Cl)cn2)s1 + CCn1c(-c2cccnc2C(C)OC)c2c3cc(ccc31)N1CCOC(CC(NC(=O)C(C(C)C)N(C)C(=O)C3(F)CCN(C(=O)C#CC(C)(C)N(C)C)CC3)C(=O)N3CCCC(N3)C(=O)OCC(C)(C)C2)C1 ?
Result: 105
